test: A549 lung cancer cell viability effects, profiling panel, resazurin fluorescence, 24 h, PK04 Diversity Set (AID 1171); conditions: higher = more signal, called active from +8 up or from −8 down; further: test concentration not given here
Assign yes whenever z-score does not fall below 0.01; assign no whenever it does.

compound: O=C1[C@H]2CCn3c(=O)n(-c4ccccc4)c(=O)n3[C@H]2[C@H](O)[C@@H]2O[C@H]12
classification: no
//
compound: CON=C(C)CCC(=O)OC[C@H]1O[C@H](C#Cc2ccccc2)C=C[C@@H]1Oc1ccc(C)cc1
classification: yes
//
compound: CCN1C(C)=C(C(=O)OC)[C@@H](c2ccccc2)N2C(=O)[C@](O)(C(=O)OC)CC(C(C)=O)=C12
classification: no
//
compound: CCOC(=O)CCN1C(=O)[C@H]2[C@H]3[C@H](O)[C@H](O)CC(=NOCC=C(C)CCC=C(C)C)[C@H]3CC[C@H]2C1=O
classification: no

Decide: z-score of CC(C)=NOC[C@@H](O)[C@H]1O[C@@H]2OC(C)(C)O[C@@H]2[C@H]1O >= 0.01?
no

Decide: z-score of O=C1[C@H]2[C@H]3[C@H](O)[C@H](O)CC(=NO[C@@H]4O[C@H](CO)[C@@H](O)[C@H](O)[C@H]4O)[C@@H]3CC[C@H]2C(=O)N1c1cccc(Oc2ccccc2)c1 >= 0.01?
yes

Decide: z-score of COc1ccc(COC(=O)NN=C2C[C@@H](O)[C@@H](O)[C@@H]3[C@@H]4C(=O)N(C[C@@H]5CCCO5)C(=O)[C@@H]4CC[C@@H]23)cc1 >= 0.01?
no

Decide: z-score of COC(=O)CC=C[C@@H](C)[C@@H](C=NOC(C)CN1CCCc2nc(C)c(C)cc21)NS(=O)(=O)c1ccc(C)cc1 (stereo not given in full) >= 0.01?
no

Decide: z-score of OC[C@H]1O[C@H](C#Cc2ccccc2)C=C[C@@H]1O >= 0.01?
no

* * *

assay: small-molecule microarray binders of probe aShh, primary screen, biochemical, biotinylated probe, 635/667 nm fluorescence (AID 1114); conditions: higher = more signal;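 further: probe is biotin-labelled aShh protein from a stem cell growth factor screen; measures binding of labelled protein to compounds printed on the slide; score merges feature fluorescence at 667 nm with signal-to-noise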
Assign yes (1) whenever composite z-score does not fall below -0.1; assign no (0) whenever it does.

Below are worked cases with known answers.
molecule: COC(=O)CC=C[C@@H](C)[C@@H](C=NOC[C@@H](C)[C@H](OCc1ccccc1)C(C)C)OC
classification: no (0)
//
molecule: CO[C@@H]1COC(=O)[C@@H]2CCCN2C(=O)[C@@H](C)COC(=O)CCC[C@H]1C
classification: yes (1)
//
molecule: O=C1C[C@H](c2ccccc2)[C@H](c2ccc(Br)cc2)O1
classification: no (0)
//
molecule: COc1ccc(O[C@H]2C=C[C@@H](C#Cc3ccccc3)O[C@@H]2CO)cc1
classification: yes (1)
//
molecule: CCCNC(=O)OC[C@H]1O[C@H](CCON=C2C[C@@H](O)[C@@H](O)[C@@H]3[C@@H]4C(=O)N(CC)C(=O)[C@@H]4CC[C@@H]23)C=C[C@@H]1Oc1ccc(OC)cc1
classification: yes (1)
//
molecule: CC(C)(C)N1C(=O)[C@H]2[C@H]3[C@H](O)[C@H](O)CC(=NOC[C@@H](O)COCc4ccco4)[C@@H]3CC[C@H]2C1=O
classification: no (0)
//
molecule: COC(=O)[C@H](C)NC(=O)CCC1CC(OC(=O)NCCc2ccc(F)cc2)CC2(CCCC(COC(=O)NCCOc3ccccc3)O2)O1 (stereo not given in full)
classification: yes (1)
//
molecule: CCOC(=O)CCN1C(=O)[C@H]2[C@@H]3C(=CC[C@H]2C1=O)C(=O)[C@H]1O[C@H]1[C@H]3O
classification: no (0)
//
molecule: COc1ccc(OC[C@@H]2CC3[C@@H](c4ccc(Br)cc4)[C@H](C)CC[C@H]3C(=O)O2)cc1 (stereo not given in full)
classification: no (0)
//
molecule: CCOC(=O)[C@H](CC(C)C)NC(=O)CCC1CC(OC(=O)NCc2ccc3c(c2)OCO3)CC2(CCCC(COC(=O)NCc3ccccc3)O2)O1 (stereo not given in full)
classification: no (0)

Decide: composite z-score of COc1cccc([C@H]2Oc3ccc(OC)cc3C(=NOCC[C@@H]3C=C[C@H](OC(C)=O)[C@@H](COC(C)=O)O3)[C@@H]2O)c1 >= -0.1?
yes (1)

Decide: composite z-score of O=C1C[C@@H](O)[C@@H](O)[C@@H]2[C@@H]3C(=O)N(c4ccc(F)cc4F)C(=O)[C@@H]3CC[C@H]12 >= -0.1?
no (0)

Decide: composite z-score of CCO[C@H](c1cc(OC)cc([N+](=O)[O-])c1OC)[C@H](C)[C@@H](OC)[C@H](C)C=CCC(=O)OC >= -0.1?
no (0)

Decide: composite z-score of CC1(C)O[C@H]2O[C@H]([C@H](O)CON=C3[C@H]4CCn5c(=O)n(-c6ccccc6)c(=O)n5[C@H]4[C@H](O)[C@@H]4O[C@H]34)[C@H](O)[C@H]2O1 >= -0.1?
no (0)

Decide: composite z-score of CC(=O)OC[C@H]1O[C@H](CC=NOCC[C@@H]2C=C[C@H](OC(C)=O)[C@@H](COC(C)=O)O2)C=C[C@@H]1OC(C)=O >= -0.1?
yes (1)

Just for reference, PubChem BioAssay is where these values come from.
